# Test system: CAKI-1 renal
# Assay Explanation: NCI tumour cell line growth inhibition, 48 h; in the data active = GI50 below about 0.43 µM; inactive = the rest
In this exercise, the only acceptable responses are active, inactive

For orientation, consider the following solved cases.
[
  {
    "Molecule": "CC(C)(C)OC(=O)NCCCCCCCn1c2c(c3ccccc3c1=O)C(=O)c1ccccc1-2",
    "Class": "inactive"
  },
  {
    "Molecule": "O=[N+]([O-])c1ccc(Sc2c3ccccc3nc3cc(Cl)ccc23)cc1",
    "Class": "inactive"
  },
  {
    "Molecule": "O=S(=O)(NCCCNc1nccc(-c2c(-c3ccc(F)cc3)nc3sccn23)n1)c1ccc2ccccc2c1",
    "Class": "inactive"
  },
  {
    "Molecule": "COC(=O)C1(C)Cc2cc(OC(C)=O)c(OC(C)=O)cc2N1 (configuration not stated)",
    "Class": "inactive"
  }
]

Each molecule tested received a call. Report the one for `C(=N\Nc1nnn(Cc2ccccc2)n1)/c1ccccc1` .
inactive

Outcome? `CNC(=O)c1nn(C)c2c1C(C)(C)Cc1cnc(Nc3ccc(N4CCN(C)CC4)cc3)nc1-2`
active

GET /call?item= `Cc1ccc(NC(=O)c2cc(S(=O)(=O)N3C(=O)NC(=O)NS3(=O)=O)c(S)cc2Cl)cc1` returns the recorded outcome of this test.
inactive
